Biological target: T1, human DLL3 (immobilized human DLL3 or h293-hDLL3 cells) (human, UniProt Q9NYJ7 27-492, limits assumed)
T1 construct: the sentence says 'immobilized human DLL3 or h293-hDLL3 cells'
T1 sequence: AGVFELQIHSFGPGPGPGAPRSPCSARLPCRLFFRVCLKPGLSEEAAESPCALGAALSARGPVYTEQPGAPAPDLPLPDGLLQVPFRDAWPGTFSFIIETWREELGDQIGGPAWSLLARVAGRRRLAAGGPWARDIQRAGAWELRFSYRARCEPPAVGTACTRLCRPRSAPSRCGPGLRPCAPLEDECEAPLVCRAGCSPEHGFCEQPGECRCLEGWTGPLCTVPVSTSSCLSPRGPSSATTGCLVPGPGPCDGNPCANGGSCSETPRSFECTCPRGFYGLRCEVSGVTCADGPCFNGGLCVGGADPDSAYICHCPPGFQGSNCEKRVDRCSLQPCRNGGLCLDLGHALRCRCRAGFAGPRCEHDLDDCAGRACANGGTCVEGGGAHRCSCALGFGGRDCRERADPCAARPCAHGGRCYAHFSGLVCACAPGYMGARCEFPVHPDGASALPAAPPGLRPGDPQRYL
Assay: hybridoma screening on immobilized human DLL3 or on h293-hDLL3 cells
Observed Property: binding result

SC16.35 (antibody, V domains shown, murine mAb; variable regions only) VH: DVQLQESGPGLVKPSQSLSLTCTVTGYSITSDYAWNWIRQFPGNKLEWMGYISYSGSTSYNPSLKSRISITRDTSKNQFFLQLNSVTTEDTATYYCARFYYGSSYAMDYWGQGTSVTVSS VL: DIQMTQTTSSLSASLGDRVTISCRASQDISNYLNWYQQKPDGTVKLLIYYTSRLHSGVPSRFSGSGSGTDYSLTISNLEQEDIATYFCQQGNTLPYTFGGGTKLEIK = binds
SC16.118 (antibody, V domains shown, murine mAb; variable regions only) VH: EVQLQQSGPDLVKPGASVKISCKASGYSFTGYYMHWVKQSHGKSLEWIGRVNPNNGGTSYNQKFKGKAILTADKSSSTAYMELRSLTSEDSAVYYCARGSYDYAEGWGQGTLVTVSA VL: DIVLTQSPASLAVSLGQRATISCKASQSVDYDGDSYLTWYQQKPGQPPKLLIYAASNLESGIPARFSGSGSGTDFTLNIHPVEEEDAATYYCQQSNEDPYTFGGGTKLEIK = binds
SC16.52 (antibody, V domains shown, murine mAb; variable regions only) VH: QVQLKESGPGLVAPSQSLSITCAVSGFSLTSFAIHWFRKPPGKGLEWLGVIWTGGTTNYNSALMSRLSISKDNSKSQVFLKMNSLQTDDTAMYYCARDDYDNNYAMDYWGQGTSVTVSS VL: DIQMIQSPSSMFASLGDRVSLSCRASQGIRGTLDWYQQKPNGTIKLLIYSTSNLNSGVPSRFSGSGSGSDYSLTISSLESEDFADYYCLQRNAYPLTFGAGTKLELK = binds
